Tested on: NCI-H719 tumor spheroids, viability
PROCEDURE TEXT: Anticancer human tumor NCI-H719 cell line growth inhibition;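 note: spheroids exposed to compounds for seven days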;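 for viability, T/C: percent viability relative to DMSO vehicle control as 100%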
TEST CONTEXT: second compound 0.0003 µM; first compound 0.0316 µM; stronger effect = lower value; spheroids with HUVEC and MSC
Can you tell me viability, T/C for the items I'm about to list?
One number for each entry, in %.

Fill in viability, T/C for each of the 4 compounds listed.
1. [2H]c1nc(C)nc([2H])c1-c1cc(NC[C@@H](C)c2cccc3c(C(=O)NC)ccnc23)ncn1 + COc1cc2c(cc1O)CCNC21CSC2c3c(OC(C)=O)c(C)c4c(c3C(COC1=O)N1C(O)C3Cc5cc(C)c(OC)c(O)c5C(C21)N3C)OCO4
2. CC(C)n1c(=O)n(C)c2cnc3cc(F)c(-c4ccc(OCCCN5CCCCC5)nc4)cc3c21 + COc1cc2c(cc1O)CCNC21CSC2c3c(OC(C)=O)c(C)c4c(c3C(COC1=O)N1C(O)C3Cc5cc(C)c(OC)c(O)c5C(C21)N3C)OCO4
3. COc1ccc([C@@H](O)c2cc(-c3ncnc4cc(N5CCOCC5)ccc34)c(F)cc2Cl)nn1 + COc1cc2c(cc1O)CCNC21CSC2c3c(OC(C)=O)c(C)c4c(c3C(COC1=O)N1C(O)C3Cc5cc(C)c(OC)c(O)c5C(C21)N3C)OCO4
4. COc1cc(C)[nH]c(=O)c1CN1CCc2c(Cl)cc(C(OC)C3COC3)c(Cl)c2C1=O (centres undefined) + COc1cc2c(cc1O)CCNC21CSC2c3c(OC(C)=O)c(C)c4c(c3C(COC1=O)N1C(O)C3Cc5cc(C)c(OC)c(O)c5C(C21)N3C)OCO4

1. 6.45
2. 30.1
3. 13.6
4. 13.2

====

System: NCI-H719 tumor spheroids, viability
PROCEDURE TEXT: Anticancer human tumor NCI-H719 cell line growth inhibition;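 note: spheroids exposed to compounds for seven days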;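 for viability, T/C: percent viability relative to DMSO vehicle control as 100%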
TEST CONTEXT: second compound 30 pM; first compound 0.1 µM; stronger effect = lower value; spheroids with HUVEC and MSC
QUANTITY MEASURED: viability, T/C (%)
Answers are plain numbers, in %.

These solved cases illustrate the format of a correct answer.
{"COMPOUND": "COc1cc(C)[nH]c(=O)c1CN1CCc2c(Cl)cc(C(OC)C3COC3)c(Cl)c2C1=O (stereo unspecified) + COc1cc2c(cc1O)CCNC21CSC2c3c(OC(C)=O)c(C)c4c(c3C(COC1=O)N1C(O)C3Cc5cc(C)c(OC)c(O)c5C(C21)N3C)OCO4", "viability, T/C / %": 85}
{"COMPOUND": "[2H]c1nc(C)nc([2H])c1-c1cc(NC[C@@H](C)c2cccc3c(C(=O)NC)ccnc23)ncn1 + COc1cc2c(cc1O)CCNC21CSC2c3c(OC(C)=O)c(C)c4c(c3C(COC1=O)N1C(O)C3Cc5cc(C)c(OC)c(O)c5C(C21)N3C)OCO4", "viability, T/C / %": 82.5}
{"COMPOUND": "CC(C)n1c(=O)n(C)c2cnc3cc(F)c(-c4ccc(OCCCN5CCCCC5)nc4)cc3c21 + COc1cc2c(cc1O)CCNC21CSC2c3c(OC(C)=O)c(C)c4c(c3C(COC1=O)N1C(O)C3Cc5cc(C)c(OC)c(O)c5C(C21)N3C)OCO4", "viability, T/C / %": 86.2}
{"COMPOUND": "COc1ccc([C@@H](O)c2cc(-c3ncnc4cc(N5CCOCC5)ccc34)c(F)cc2Cl)nn1 + COc1cc2c(cc1O)CCNC21CSC2c3c(OC(C)=O)c(C)c4c(c3C(COC1=O)N1C(O)C3Cc5cc(C)c(OC)c(O)c5C(C21)N3C)OCO4", "viability, T/C / %": 100}
{"COMPOUND": "CC1COCCN1c1cc(-c2ccnn2C)c2ccnc(-c3ccn[nH]3)c2n1 (stereo unspecified) + COc1cc2c(cc1O)CCNC21CSC2c3c(OC(C)=O)c(C)c4c(c3C(COC1=O)N1C(O)C3Cc5cc(C)c(OC)c(O)c5C(C21)N3C)OCO4", "viability, T/C / %": 19.2}

Next item in the queue.
Query (compound): Cc1cc(C)c(CNC(=O)c2cc(-c3ccc(CN4CCOCC4)cc3)cc3c2cnn3C2CCCC2)c(=O)[nH]1 + COc1cc2c(cc1O)CCNC21CSC2c3c(OC(C)=O)c(C)c4c(c3C(COC1=O)N1C(O)C3Cc5cc(C)c(OC)c(O)c5C(C21)N3C)OCO4 ; field requested: viability, T/C
100

====

System: NCI-H719 tumor spheroids, viability
PROCEDURE TEXT: Anticancer human tumor NCI-H719 cell line growth inhibition; active means viability on the fitted dose curve at most 10% of control; inactive means the rest;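 note: spheroids exposed to compounds for seven days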
TEST CONTEXT: second compound 94.9 pM; first compound 3 µM; spheroids with HUVEC and MSC
Can you answer with just one of these options? Y = active, N = inactive

{"COMPOUND": "CNCc1ccc(-c2cc(-c3nc(-c4ccc(S(=O)(=O)C(C)C)cc4)cnc3N)on2)cc1 + COc1cc2c(cc1O)CCNC21CSC2c3c(OC(C)=O)c(C)c4c(c3C(COC1=O)N1C(O)C3Cc5cc(C)c(OC)c(O)c5C(C21)N3C)OCO4", "LABEL CLASS": "Y"}

Called result for O=C(c1cc(Cc2n[nH]c(=O)c3ccccc23)ccc1F)N1CCN(C(=O)C2CC2)CC1 + COc1cc2c(cc1O)CCNC21CSC2c3c(OC(C)=O)c(C)c4c(c3C(COC1=O)N1C(O)C3Cc5cc(C)c(OC)c(O)c5C(C21)N3C)OCO4
N

Record: Cc1sc2c(c1C)C(c1ccc(Cl)cc1)=NC(CC(=O)Nc1ccc(O)cc1)c1nnc(C)n1-2 (centres undefined) + COc1cc2c(cc1O)CCNC21CSC2c3c(OC(C)=O)c(C)c4c(c3C(COC1=O)N1C(O)C3Cc5cc(C)c(OC)c(O)c5C(C21)N3C)OCO4
Y

Likewise for Cn1ncnc1[C@H]1c2n[nH]c(=O)c3cc(F)cc(c23)N[C@@H]1c1ccc(F)cc1 + COc1cc2c(cc1O)CCNC21CSC2c3c(OC(C)=O)c(C)c4c(c3C(COC1=O)N1C(O)C3Cc5cc(C)c(OC)c(O)c5C(C21)N3C)OCO4 ?
Y

====

Tested on: NCI-H719 tumor spheroids, viability
PROCEDURE TEXT: Anticancer human tumor NCI-H719 cell line growth inhibition;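 note: spheroids exposed to compounds for seven days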
TEST CONTEXT: curve of first compound; second compound 0.003 µM; spheroids with HUVEC and MSC
Kindly supply the reported IC50 values for the records listed here.

# count of solved cases: 4
{"COMPOUND": "[2H]c1nc(C)nc([2H])c1-c1cc(NC[C@@H](C)c2cccc3c(C(=O)NC)ccnc23)ncn1 + COc1cc2c(cc1O)CCNC21CSC2c3c(OC(C)=O)c(C)c4c(c3C(COC1=O)N1C(O)C3Cc5cc(C)c(OC)c(O)c5C(C21)N3C)OCO4", "RESULT": "< 31.6 nM"}
{"COMPOUND": "O=C(c1cc(Cc2n[nH]c(=O)c3ccccc23)ccc1F)N1CCN(C(=O)C2CC2)CC1 + COc1cc2c(cc1O)CCNC21CSC2c3c(OC(C)=O)c(C)c4c(c3C(COC1=O)N1C(O)C3Cc5cc(C)c(OC)c(O)c5C(C21)N3C)OCO4", "RESULT": "< 94.9 nM"}
{"COMPOUND": "[2H]c1nc(C)nc([2H])c1-c1cc(NC[C@@H](C)c2cccc3c(C(=O)NC)ccnc23)ncn1 + CC[C@@]1(O)C(=O)OCc2c1cc1n(c2=O)Cc2cc3c(CN(C)C)c(O)ccc3nc2-1", "RESULT": "> 10000 nM"}
{"COMPOUND": "Cn1ncnc1[C@H]1c2n[nH]c(=O)c3cc(F)cc(c23)N[C@@H]1c1ccc(F)cc1 + CC[C@@]1(O)C(=O)OCc2c1cc1n(c2=O)Cc2cc3c(CN(C)C)c(O)ccc3nc2-1", "RESULT": "< 9.49 nM"}

Entry CC(C)n1c(=O)n(C)c2cnc3cc(F)c(-c4ccc(OCCCN5CCCCC5)nc4)cc3c21 + CC[C@@]1(O)C(=O)OCc2c1cc1n(c2=O)Cc2cc3c(CN(C)C)c(O)ccc3nc2-1 : reported IC50 = ?
< 31.6 nM

====

System: NCI-H719 tumor spheroids, viability
PROCEDURE TEXT: Anticancer human tumor NCI-H719 cell line growth inhibition; active means viability on the fitted dose curve at most 10% of control; inactive means the rest;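 note: spheroids exposed to compounds for seven days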
TEST CONTEXT: second compound 3.16 µM; first compound 10 µM; spheroids with HUVEC and MSC
Pick one and only one: active, inactive

Some solved cases for reference:
{"COMPOUND": "COc1ccc([C@@H](O)c2cc(-c3ncnc4cc(N5CCOCC5)ccc34)c(F)cc2Cl)nn1 + Cn1nnc2c(C(N)=O)ncn2c1=O", "STUDY SYSTEM": "NCI-H719 tumor spheroids, viability", "LABEL CLASS": "inactive"}
{"COMPOUND": "CC(C)n1c(=O)n(C)c2cnc3cc(F)c(-c4ccc(OCCCN5CCCCC5)nc4)cc3c21 + Cn1nnc2c(C(N)=O)ncn2c1=O", "STUDY SYSTEM": "NCI-H719 tumor spheroids, viability", "LABEL CLASS": "inactive"}
{"COMPOUND": "Cc1cc(C)c(CNC(=O)c2cc(-c3ccc(CN4CCOCC4)cc3)cc3c2cnn3C2CCCC2)c(=O)[nH]1 + Cn1nnc2c(C(N)=O)ncn2c1=O", "STUDY SYSTEM": "NCI-H719 tumor spheroids, viability", "LABEL CLASS": "inactive"}
{"COMPOUND": "COc1cc(C)[nH]c(=O)c1CN1CCc2c(Cl)cc(C(OC)C3COC3)c(Cl)c2C1=O (stereo unspecified) + Cn1nnc2c(C(N)=O)ncn2c1=O", "STUDY SYSTEM": "NCI-H719 tumor spheroids, viability", "LABEL CLASS": "inactive"}
{"COMPOUND": "[2H]c1nc(C)nc([2H])c1-c1cc(NC[C@@H](C)c2cccc3c(C(=O)NC)ccnc23)ncn1 + Cn1nnc2c(C(N)=O)ncn2c1=O", "STUDY SYSTEM": "NCI-H719 tumor spheroids, viability", "LABEL CLASS": "inactive"}

Called result for CC1COCCN1c1cc(-c2ccnn2C)c2ccnc(-c3ccn[nH]3)c2n1 (stereo unspecified) + Cn1nnc2c(C(N)=O)ncn2c1=O
active
